# % Activation listing for each entry below
molecular target: ΔF508-CFTR (Homo sapiens, UniProt P13569, DEL508-508); construct: host or cells: CFBE41o-, doxycycline-inducible; test: CFTR cell surface levels using HRP-tagged ΔF508-CFTR expressing CFBE cells, in the presence of a co-corrector; format: cell-based; details: HRP-tagged ΔF508-CFTR expressing CFBE cells, in the presence of 3 μM co-corrector
Sequence (P13569 with tags, fused parts or gaps DEL508-508): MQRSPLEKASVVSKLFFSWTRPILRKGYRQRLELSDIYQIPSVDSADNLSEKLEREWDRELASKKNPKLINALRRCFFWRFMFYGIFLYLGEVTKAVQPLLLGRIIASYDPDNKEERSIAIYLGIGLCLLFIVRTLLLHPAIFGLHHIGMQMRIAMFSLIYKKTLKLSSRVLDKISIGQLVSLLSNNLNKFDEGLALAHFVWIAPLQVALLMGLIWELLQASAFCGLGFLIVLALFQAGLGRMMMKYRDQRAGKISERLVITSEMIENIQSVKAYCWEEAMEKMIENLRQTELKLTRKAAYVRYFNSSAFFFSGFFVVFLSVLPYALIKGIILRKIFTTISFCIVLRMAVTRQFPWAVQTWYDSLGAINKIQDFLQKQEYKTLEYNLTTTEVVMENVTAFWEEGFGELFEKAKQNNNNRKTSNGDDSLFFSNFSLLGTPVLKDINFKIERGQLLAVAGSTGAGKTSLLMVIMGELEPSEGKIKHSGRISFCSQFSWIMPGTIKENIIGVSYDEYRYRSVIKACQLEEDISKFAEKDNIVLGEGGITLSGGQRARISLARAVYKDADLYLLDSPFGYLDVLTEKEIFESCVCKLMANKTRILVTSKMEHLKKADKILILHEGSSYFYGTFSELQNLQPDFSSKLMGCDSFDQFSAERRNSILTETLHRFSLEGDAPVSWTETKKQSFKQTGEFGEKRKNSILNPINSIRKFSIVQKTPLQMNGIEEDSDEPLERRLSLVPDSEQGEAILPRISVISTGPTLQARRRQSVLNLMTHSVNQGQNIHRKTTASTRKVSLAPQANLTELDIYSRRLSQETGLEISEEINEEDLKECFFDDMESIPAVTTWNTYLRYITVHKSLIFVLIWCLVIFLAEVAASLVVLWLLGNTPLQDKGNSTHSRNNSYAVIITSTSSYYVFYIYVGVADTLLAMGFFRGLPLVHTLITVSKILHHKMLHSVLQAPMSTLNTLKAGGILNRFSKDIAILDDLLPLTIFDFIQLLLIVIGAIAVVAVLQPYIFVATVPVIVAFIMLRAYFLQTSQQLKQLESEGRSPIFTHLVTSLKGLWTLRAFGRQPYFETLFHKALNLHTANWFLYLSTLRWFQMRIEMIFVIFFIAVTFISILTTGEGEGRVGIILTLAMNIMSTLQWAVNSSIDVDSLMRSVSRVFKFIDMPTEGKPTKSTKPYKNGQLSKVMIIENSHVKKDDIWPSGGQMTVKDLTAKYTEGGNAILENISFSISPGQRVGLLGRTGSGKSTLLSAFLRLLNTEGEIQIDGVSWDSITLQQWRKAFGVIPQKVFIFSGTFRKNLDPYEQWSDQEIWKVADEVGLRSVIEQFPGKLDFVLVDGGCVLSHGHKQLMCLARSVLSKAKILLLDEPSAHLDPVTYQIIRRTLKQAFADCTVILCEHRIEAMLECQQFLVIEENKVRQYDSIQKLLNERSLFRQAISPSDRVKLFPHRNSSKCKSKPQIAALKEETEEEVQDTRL
Give the value, in units of %, as a plain number.

>  <MOLECULE_SMILES>
CC(C)c1nn(-c2ccc(F)cc2)c2nc(C(=O)O)cc(N3CC4(CCCOC4)C3)c12

>  <% Activation / %>
283.65

$$$$
>  <MOLECULE_SMILES>
O=C(O)c1cc(N2CCC(CN3CC4(CCCOC4)C3)CC2)c2c(C3CCC3)nn(-c3ccccc3)c2n1

>  <% Activation / %>
325.3

$$$$
>  <MOLECULE_SMILES>
CC(C)c1nn(C2CCCCC2)c2nc(C(=O)O)cc(-c3ccc(N4CCOCC4)nc3)c12

>  <% Activation / %>
398.25

$$$$
>  <MOLECULE_SMILES>
Cc1nn(-c2ccccc2)c2nc(C(=O)O)cc(-c3ccc(N4CC(F)(F)C4)cc3)c12

>  <% Activation / %>
268

$$$$
>  <MOLECULE_SMILES>
COCCCN1CCN(c2cc(C(=O)O)nc3c2c(C2CCC2)nn3-c2ccccc2)CC1

>  <% Activation / %>
344.1

$$$$
>  <MOLECULE_SMILES>
CO[C@H]1CCCC[C@@H]1Oc1cc(C(=O)O)nc2c1c(C1CCC1)nn2-c1ccccc1

>  <% Activation / %>
288

$$$$
>  <MOLECULE_SMILES>
CC(C)c1nn(-c2ccc(F)cc2)c2nc(C(=O)O)cc(N3CCN(C(C)(C)C)CC3)c12

>  <% Activation / %>
329.4

$$$$

The value of % Activation measured for the compound O=C(O)c1cc(OCC2CCC(F)(F)CC2)c2c(C3CCC3)nn(-c3ccccc3)c2n1 turned out to be 389.95

----------
# EC50 listing for each entry below
biological target: ΔF508-CFTR (Homo sapiens, UniProt P13569, DEL508-508); construct: host or cells: CFBE41o-, doxycycline-inducible; test: CFTR cell surface levels using HRP-tagged ΔF508-CFTR expressing CFBE cells, in the presence of a co-corrector; format: cell-based; details: HRP-tagged ΔF508-CFTR expressing CFBE cells, in the presence of 3 μM co-corrector; read-out: EC50
Give the value, in units of µM, as a plain number.

The value of EC50 measured for the molecule O=C(O)c1cc(N2CCC3(CC2)CC(N2CCCC2)CO3)c2c(C3CCC3)nn(-c3ccc(F)cc3)c2n1 (centres unmarked) turned out to be 0.636

----------
biological target: ΔF508-CFTR (Homo sapiens, UniProt P13569, DEL508-508); construct: host or cells: CFBE41o-, doxycycline-inducible; experiment: CFTR cell surface levels using HRP-tagged ΔF508-CFTR expressing CFBE cells, in the presence of a co-corrector; assay type: cell-based; details: HRP-tagged ΔF508-CFTR expressing CFBE cells, in the presence of 3 μM co-corrector
# % Activation listing for each entry below
Give the value, in units of %, as a plain number.

Completed entries (count: 6):
>  <COMPOUND>
O=C(O)c1cc(OCCN2CCCCCC2)c2c(C3CCC3)nn(-c3ccccc3)c2n1

>  <% Activation [%]>
271.8

$$$$
>  <COMPOUND>
COc1ccc(-n2nc(C3CCC3)c3c(N4CCC(N5CCOCC5)CC4)cc(C(=O)O)nc32)cc1F

>  <% Activation [%]>
397.9

$$$$
>  <COMPOUND>
CN(c1cc(C(=O)O)nc2c1c(C1CCC1)nn2-c1ccccc1)[C@H]1C[C@@H](OC(C)(C)C)C1

>  <% Activation [%]>
312.85

$$$$
>  <COMPOUND>
Cc1nn(-c2ccccc2)c2nc(C(=O)O)cc(OCCN3CCS(=O)(=O)CC3)c12

>  <% Activation [%]>
226.6

$$$$
>  <COMPOUND>
CC(C)c1nn(-c2ccc(F)cc2)c2nc(C(=O)O)cc(N3CC(N4CCCC4)C3)c12

>  <% Activation [%]>
168.7

$$$$
>  <COMPOUND>
CC1CN(c2cc(C(=O)O)nc3c2c(C2CCC2)nn3-c2ccccc2)C1

>  <% Activation [%]>
308.95

$$$$

Entry O=C(O)c1cc(N2CCC(N3CCCCC3)CC2)c2c(C3CCC3)nn(-c3ccccc3)c2n1 : % Activation on ΔF508-CFTR (Homo sapiens, UniProt P13569, DEL508-508) = 390.78

Entry Cc1nn(-c2ccccc2)c2nc(C(=O)O)cc(-c3ccc(N4CCN(C(C)(C)C)CC4)cc3)c12 : % Activation on ΔF508-CFTR (Homo sapiens, UniProt P13569, DEL508-508) = 143.1

----------
molecular target: ΔF508-CFTR (Homo sapiens, UniProt P13569, DEL508-508); construct: host or cells: CFBE41o-, doxycycline-inducible; assay: CFTR cell surface levels using HRP-tagged ΔF508-CFTR expressing CFBE cells, intrinsic corrector capacity; format: cell-based; conditions: HRP-tagged ΔF508-CFTR expressing CFBE cells; intrinsic corrector capacity (no co-corrector); 33° C., 20 hours
# % Activation listing for each entry below
Param answer (str): number followed by unit.

>  <COMPOUND>
O=C(O)c1cc(N2CCC3(CCCC3)CC2)c2c(C3CCC3)nn(-c3ccccc3)c2n1 [compound 452]

>  <% Activation>
74.98%

$$$$

The value of % Activation measured for the compound O=C(O)c1cc(OCCN2CCNC2=O)c2c(C3CCC3)nn(-c3ccccc3)c2n1 [compound 640] turned out to be 13.97%

The value of % Activation measured for the compound O=C(O)c1cc(N2CCC[C@@H](CO)C2)c2c(C3CCC3)nn(-c3ccccc3)c2n1 [compound 544] turned out to be 129.55%

The value of % Activation measured for the compound O=C(O)c1cc(CN2CCOCC2)c2c(C3CCC3)nn(-c3ccc(F)cc3)c2n1 [compound 857] turned out to be 60.01%

The value of % Activation measured for the compound O=C(O)c1cc(O[C@@H]2CCOC2)c2c(C3CCC3)nn(-c3ccccc3)c2n1 [compound 582] turned out to be 92.03%

The value of % Activation measured for the compound O=C(O)c1cc(N2CCN(CC(=O)N3CCOCC3)CC2)c2c(C3CCC3)nn(-c3ccccc3)c2n1 [compound 474] turned out to be 125.3%

----------
molecular target: ΔF508-CFTR (Homo sapiens, UniProt P13569, DEL508-508); construct: host or cells: CFBE41o-, doxycycline-inducible; test: CFTR cell surface levels using HRP-tagged ΔF508-CFTR expressing CFBE cells, in the presence of a co-corrector; type: cell-based; settings: HRP-tagged ΔF508-CFTR expressing CFBE cells, in the presence of 3 μM co-corrector
Threshold check on % Activation: strictly below 300% is label 1; on or above 300% is label 0.

Before answering, review these 5 worked examples.
>  <COMPOUND>
CC(C)c1nn(-c2cccc(F)c2)c2nc(C(=O)O)cc(-c3ccc(N(C)C4CCOCC4)nc3)c12

>  <GROUP_LABEL>
label 0

$$$$
>  <COMPOUND>
CO[C@@H]1CCC[C@@H](n2nc(C(C)C)c3c(-c4ccc(N5CCOCC5)cc4)cc(C(=O)O)nc32)C1

>  <GROUP_LABEL>
label 0

$$$$
>  <COMPOUND>
COCC1(F)CCN(c2cc(C(=O)O)nc3c2c(C2CCC2)nn3-c2ccccc2)CC1

>  <GROUP_LABEL>
label 0

$$$$
>  <COMPOUND>
CC(C)c1nn(C2CCCCC2)c2nc(C(=O)O)cc(-c3cccn3C)c12

>  <GROUP_LABEL>
label 1

$$$$
>  <COMPOUND>
CC(C)c1nn(-c2ccc(OC(F)(F)F)cc2)c2nc(C(=O)O)cc(-c3ccc(N4CCOCC4)cc3)c12

>  <GROUP_LABEL>
label 0

$$$$

QUERY: Does the reported % Activation of CC(C)c1nn(-c2ccc(F)cc2)c2nc(C(=O)O)cc(N3CCC(C(C)N4CCCC4)CC3)c12 (centres unmarked) stay below 300%?
RESULT: label 0

QUERY: Does the reported % Activation of CO[C@@H]1CCN(c2cc(C(=O)O)nc3c2c(C)nn3-c2ccccc2)C1 stay below 300%?
RESULT: label 1

QUERY: Does the reported % Activation of Cc1nn(-c2ccccc2)c2nc(C(=O)O)cc(-c3ccc(N4CCC(O)CC4)cc3)c12 stay below 300%?
RESULT: label 0
